assaySystem: human AT1R (Homo sapiens, UniProt P30556)
Sequence (P30556 1-359): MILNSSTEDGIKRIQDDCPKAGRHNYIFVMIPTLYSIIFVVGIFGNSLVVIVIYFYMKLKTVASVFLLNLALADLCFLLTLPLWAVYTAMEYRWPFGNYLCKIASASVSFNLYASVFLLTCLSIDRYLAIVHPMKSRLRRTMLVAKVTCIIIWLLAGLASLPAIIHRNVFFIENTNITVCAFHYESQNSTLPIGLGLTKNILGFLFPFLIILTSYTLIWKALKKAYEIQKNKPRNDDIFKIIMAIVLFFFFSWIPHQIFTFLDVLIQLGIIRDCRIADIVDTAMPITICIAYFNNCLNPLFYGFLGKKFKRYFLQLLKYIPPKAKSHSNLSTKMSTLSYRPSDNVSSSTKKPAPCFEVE
methodSummary: IP1 accumulation assay (IP1 G-protein assay), human AT1R
Assay type: cell-based
experimentalConditions: read-out: Span (relative to hAngII)
Procedure: A secondary measure of G protein coupling efficacy was also performed. IP3 is generated by activation of phospholipase C by Gα-q. IP3 is degraded to IP1, which can be forced to accumulate in cells by blocking degradation with lithium chloride. Thus we measured accumulation of IP1 to determine ligand efficacy for G protein activation. […]
Where a SMILES comes first, the peptide text is derived from it. [ ]: non-standard residue; d: D form. The star is where a group is joined. Ac6c = NC1(C(=O)O)CCCCC1; NHiPr = CC(C)N*; Sar = CNCC(=O)O
Measured Emax of individual entries
quantityMeasured: Emax

1) CNCC(=O)N[C@@H](CCCNC(=N)N)C(=O)N[C@H](C(=O)N[C@@H](Cc1ccc(O)cc1)C(=O)NC1(C(=O)N[C@@H](Cc2c[nH]cn2)C(=O)N2CCC[C@H]2C(=O)NC(C)C)CCCCC1)C(C)C [SEQ ID NO: 46, Sar-Arg-Val-Tyr-cyHex-His-Pro-NH-i-Pr] (H-[Sar]RVY[Ac6c]HP-NHiPr)	< 103%
2) CNCC(=O)N[C@@H](CCCNC(=N)N)C(=O)N[C@H](C(=O)N[C@@H](Cc1ccc(O)cc1)C(=O)NC1(C(=O)N[C@@H](Cc2c[nH]cn2)C(=O)N2CCC[C@H]2C(=O)N2CCC[C@H]2C(=O)O)CCCCC1)C(C)C [SEQ ID NO: 39, Sar-Arg-Val-Tyr-cyHex-His-Pro-Pro] (H-[Sar]RVY[Ac6c]HPP-OH)	< 103%

// provenance: patent US8946142B2
